Target: T1, hMEX3B KH1/2 (G83D/G86D) (Homo sapiens, UniProt Q6ZN04 56-230, G83D;G86D)
T1 sequence: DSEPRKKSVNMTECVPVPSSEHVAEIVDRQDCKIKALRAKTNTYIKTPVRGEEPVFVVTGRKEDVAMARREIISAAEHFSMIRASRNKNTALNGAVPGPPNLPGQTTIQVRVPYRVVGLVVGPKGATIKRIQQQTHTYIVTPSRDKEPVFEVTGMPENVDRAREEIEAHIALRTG
Experiment: ITC; N 0.67; ITC at 298 K, protein injected into RNA, both dialyzed in the same buffer (composition not in the material; purification SEC buffer 2 M NaCl, 20 mM Tris pH 7.5); NMR at 298 K, 0.1 mM protein
Conditions: protein: recombinant; tags: 6xHis-SUMO cleaved (ULP1)
observed.property: pKd
Numbers only, as −log10 of the molar value.

I have this binder here, CUGAGCUGUAAC (ssRNA) [12-nt RNA] , and I need its recorded pKd.
4.98

Hey, just so you know, these numbers are from paper PMC10850505.
